Entry source: the supplement of paper PMC10567573

Please go through the items and note down their protein stability index.
B1: PLAGL1 (parent)
chain: TKEKKHQCDHCERCFYTRKDVRRH

# Variants of: B1
# measurementDescription: protein stability index of a GFP-peptide fusion (GPS, HEK-293T) (PSI 1-6); higher = more stable;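 note: lentivirally expressed fusions sorted by FACS into six bins by GFP to DsRed ratio, PSI derived from sequencing read proportions per bin multiplied by bin number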
# reportedConditions: c terminus: a fixed tail appended
Provide a numeric answer; units are not to be included.

Prompt: Return value of protein stability index for input `R13F` , no commentary.
Completion: 3

Prompt: Look up and report measured protein stability index for this entry: `K4P`
Completion: 3.33

Prompt: Supply protein stability index value. Item: `F15L`
Completion: 3.9

Prompt: Using the record for `F15H` , state its measured protein stability index.
Completion: 3.46

Prompt: Give reported protein stability index value for `K4N`
Completion: 3.08

Prompt: Name the recorded protein stability index of the variant listed here: `R22Q`
Completion: 3.51

Prompt: Kindly indicate its recorded protein stability index. Item: `K19P`
Completion: 3.33

Prompt: Give the reported value of protein stability index for this record: `K5T`
Completion: 3.22

Prompt: Give a short answer stating reported protein stability index for `H24M` .
Completion: 2.88

Prompt: Input `T1D` , output reported protein stability index.
Completion: 3.04

Prompt: Please list protein stability index recorded for the variant `C14S`
Completion: 3.28

Prompt: Please indicate protein stability index recorded for `Q7S`
Completion: 3.25

Prompt: Using the record for `V21L` , state its measured protein stability index.
Completion: 3.74

Prompt: Report protein stability index, nothing else, for this variant: `C14I`
Completion: 2.65

Prompt: // Input: `D9G` . Output its protein stability index only.
Completion: 3.66

Prompt: Quote protein stability index reported for `K2H` please.
Completion: 3.55

Prompt: Return reported protein stability index. Input variant: `Y16W`
Completion: 3.26

Prompt: For the variant `T17D` , give its reported protein stability index.
Completion: 3.61

Prompt: Return reported protein stability index. Input variant: `R23G`
Completion: 4.31

Prompt: Consider the variant `R22F` and give its recorded protein stability index.
Completion: 3.51

Prompt: Check the records and state protein stability index for `K19W`
Completion: 3.13

Prompt: Read the entry `E12R` and write its reported protein stability index.
Completion: 3.15

Prompt: Item `C14Y` : provide protein stability index
Completion: 3.27

Prompt: For the variant `F15V` , give its measured protein stability index value.
Completion: 3.47

Prompt: Look up protein stability index of `K2E` and report it.
Completion: 3.65

Prompt: Return value of protein stability index for input `R23K` , no commentary.
Completion: 4.27

Prompt: Look up and state reported protein stability index for `T17E`
Completion: 3.81

Prompt: Input `Q7D` , output reported protein stability index.
Completion: 3.43

Prompt: Give the measured protein stability index for `R18K`
Completion: 3.09

Prompt: Tell me measured protein stability index for `E3D` please.
Completion: 3.49

Prompt: Give reported protein stability index value for `R23H`
Completion: 3.85

Prompt: Item `Q7H` : provide protein stability index
Completion: 3.73

Prompt: Supply protein stability index value. Item: `T1K`
Completion: 3.59

Prompt: Tell me protein stability index reported for `Y16L`
Completion: 3.4

Prompt: Input `H6Q` , output reported protein stability index.
Completion: 3.08

Prompt: State, in one line, measured protein stability index of `V21G`
Completion: 3.65

Prompt: Recall and state the measured protein stability index for `H10R` .
Completion: 3.41

Prompt: Query protein stability index for `R18G`
Completion: 2.87

Prompt: # return recorded protein stability index for input `E3T`
Completion: 3.32

Prompt: Quote protein stability index reported for `K2V` please.
Completion: 3.3

Prompt: Return the recorded protein stability index value; entry: `H6N`
Completion: 3.33

Prompt: For the variant `T1L` , give its measured protein stability index value.
Completion: 3.34

Prompt: Assign protein stability index to the following record: `K2G`
Completion: 3.15

Prompt: Give the reported protein stability index for this variant. `R23P`
Completion: 4.04

Prompt: Retrieve protein stability index measured for `H10V` and print it.
Completion: 3.37

Prompt: Item `C8M` : provide protein stability index
Completion: 2.98
